experiment: Cytotoxicity against African green monkey Vero E6 cells; type: toxicity, cell-based, Vero C1008; conditions: chlorocebus sabaeus
Reported values of CC50 for individual entries

molecule: CCOP(=O)(OCC)C(Nc1ccc(I)cc1)c1cc(Cn2cc(Cn3c(=O)cc(C)c4cc(F)ccc43)nn2)ccc1O (configuration not stated)
CC50: > 100 µM
//
molecule: C[C@@]1(O)[C@H](O)[C@@H](CO)O[C@H]1n1ccc2c(N)ncnc21
CC50: > 100 µM
//
molecule: CCOP(=O)(OCC)C(Nc1ccccc1OC)c1cc(Cn2cc(Cn3c(=O)cc(C)c4cc(F)ccc43)nn2)ccc1O (configuration not stated)
CC50: > 33.3 µM
//
molecule: CCOP(=O)(OCC)C(Nc1ccc(F)cc1)c1cc(Cn2cc(Cn3c(=O)cc(C)c4cc(Br)ccc43)nn2)ccc1O (configuration not stated)
CC50: > 33.3 µM
//
molecule: CCOP(=O)(OCC)C(Nc1ccccc1Cl)c1cc(Cn2cc(Cn3c(=O)cc(C)c4cc(Br)ccc43)nn2)ccc1O (configuration not stated)
CC50: > 100 µM
//
molecule: CCOP(=O)(OCC)C(Nc1ccccc1)c1cc(Cn2cc(Cn3c(=O)cc(C)c4cc(F)ccc43)nn2)ccc1O (configuration not stated)
CC50: > 33.3 µM
//
molecule: CCOP(=O)(OCC)C(Nc1ccccc1Cl)c1cc(Cn2cc(Cn3c(=O)cc(C)c4cc(F)ccc43)nn2)ccc1O (configuration not stated)
CC50: 28.1 µM
//
molecule: CCOP(=O)(OCC)C(Nc1ccccc1Br)c1cc(Cn2cc(Cn3c(=O)cc(C)c4cc(Br)ccc43)nn2)ccc1O (configuration not stated)
CC50: > 100 µM
//
molecule: CCOP(=O)(OCC)C(Nc1ccccc1OC)c1cc(Cn2cc(Cn3c(=O)cc(C)c4cc(Br)ccc43)nn2)ccc1O (configuration not stated)
CC50: > 100 µM
//
molecule: Cc1cc(=O)n(Cc2cn(Cc3ccc(O)c(C=O)c3)nn2)c2ccccc12
CC50: 57.5 µM
//
molecule: CCOP(=O)(OCC)C(Nc1ccc(C)cc1)c1cc(Cn2cc(Cn3c(=O)cc(C)c4cc(Br)ccc43)nn2)ccc1O (configuration not stated)
CC50: > 33.3 µM
//
molecule: CCOP(=O)(OCC)C(Nc1ccccc1OC)c1cc(Cn2cc(Cn3c(=O)cc(C)c4ccccc43)nn2)ccc1O (configuration not stated)
CC50: > 33.3 µM
//
molecule: CCOP(=O)(OCC)C(Nc1ccccc1)c1cc(Cn2cc(Cn3c(=O)cc(C)c4ccccc43)nn2)ccc1O (configuration not stated)
CC50: > 100 µM
//
molecule: CCOP(=O)(OCC)C(Nc1ccccc1)c1cc(Cn2cc(Cn3c(=O)cc(C)c4cc(Br)ccc43)nn2)ccc1O (configuration not stated)
CC50: > 100 µM
//
molecule: CCOP(=O)(OCC)C(Nc1ccccc1Cl)c1cc(Cn2cc(Cn3c(=O)cc(C)c4ccccc43)nn2)ccc1O (configuration not stated)
CC50: > 33.3 µM
//
molecule: Cc1cc(=O)n(Cc2cn(Cc3ccc(O)c(C=O)c3)nn2)c2ccc(F)cc12
CC50: 55 µM
//
molecule: CCOP(=O)(OCC)C(Nc1ccc(F)cc1)c1cc(Cn2cc(Cn3c(=O)cc(C)c4cc(F)ccc43)nn2)ccc1O (configuration not stated)
CC50: > 100 µM
